The values you see were collected from PubChem BioAssay (NCI).

tested on: SF-539 CNS; experiment: NCI tumour cell line growth inhibition, 48 h
Each item that follows carries a reported TGI.

Solved entries (count: 8):
COc1cc2ncnc(-n3ncc4cc(NC(=O)Nc5ccc(Cl)c(Cl)c5)ccc43)c2cc1OC	2.47 µM
COC(=O)C(=O)C(C(=O)C(=O)Nc1cccc([N+](=O)[O-])c1)c1nc2ccc(Cl)cc2[nH]c1=O (centres undefined)	> 100 µM
CCCC1C(=O)Nc2cccc3ncn(c23)C1=O (centres undefined)	> 100 µM
O=Nn1c2ccccc2c2cc([N+](=O)[O-])ccc21	37.2 µM
NC(=O)c1cc(N(CCO)CCO)c([N+](=O)[O-])cc1[N+](=O)[O-]	> 100 µM
CC[C@@]1(OC(=O)CN)C(=O)OCc2c1cc1n(c2=O)Cc2c-1nc1cc3c(cc1c2CCl)OCO3	< 0.0318 µM
CS(=O)(=O)c1nc(-c2cc3c(c(S(C)(=O)=O)n2)CCC3)cc2c1CCCC2	> 100 µM
COc1cccc(/C(Cl)=C(\C=O)c2cccc(OC)c2)c1	37.1 µM

Req: // lookup TGI for O=S(=O)(c1ccc(-c2nnc(-c3ccc(F)cc3)o2)cc1)c1ccc(-c2nnc(-c3ccc(F)cc3)o2)cc1
Resp: > 100 µM
